experimental conditions: 293.15 K; 101.33 kPa; Liquid; Sing-around technique in a fixed-path interferometer
recorded metric: speed of sound (m/s)

[
  {
    "smiles notation": "CCCCCC",
    "recorded metric": "speed of sound",
    "measured number": 1098.9
  },
  {
    "smiles notation": "C1CCCCC1",
    "recorded metric": "speed of sound",
    "measured number": 1279
  },
  {
    "smiles notation": "CCCCO",
    "recorded metric": "speed of sound",
    "measured number": 1256.3
  },
  {
    "smiles notation": "CC(C)CO",
    "recorded metric": "speed of sound",
    "measured number": 1204.1
  }
]
